Test: Metabolic stability in mouse liver microsomes assessed as intrinsic clearance
Format: ADME, Microsome
Conditions: read-out: CLH
measurement-label: microsomal CLint (µL/min/mg)
Express it in µL/min/mg; write the number only.

q: Quote microsomal CLint reported for `CC/C(=C\c1ccccc1)[C@@H]1C[C@H]1NC1CC2(C1)CN(CC(F)F)C2` please.
a: 883

q: Please list microsomal CLint recorded for the molecule `CC/C(=C\c1ccccc1)[C@@H]1C[C@H]1NC1CC2(C1)CN(S(C)(=O)=O)C2`
a: 812

q: Supply microsomal CLint value. Item: `CC/C(=C\c1ccccc1)[C@@H]1C[C@H]1NC1CC2(C1)CN(C1COC1)C2`
a: 85
